- tgt: recombinant BACE1 protein (Homo sapiens)
- Sequence (P56817 46-501): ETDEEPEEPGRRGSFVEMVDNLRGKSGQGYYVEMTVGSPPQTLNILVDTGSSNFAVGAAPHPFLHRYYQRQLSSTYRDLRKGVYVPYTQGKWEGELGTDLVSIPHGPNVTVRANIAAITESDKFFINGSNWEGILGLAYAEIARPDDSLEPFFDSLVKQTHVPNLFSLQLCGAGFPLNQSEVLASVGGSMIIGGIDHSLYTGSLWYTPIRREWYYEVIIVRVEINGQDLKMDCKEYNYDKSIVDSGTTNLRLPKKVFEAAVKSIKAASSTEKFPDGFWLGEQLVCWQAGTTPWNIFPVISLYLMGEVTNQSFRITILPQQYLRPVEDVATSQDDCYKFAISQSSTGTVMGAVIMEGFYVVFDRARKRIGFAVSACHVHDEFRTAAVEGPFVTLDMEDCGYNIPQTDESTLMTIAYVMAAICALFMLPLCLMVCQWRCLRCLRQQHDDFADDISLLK
- method description: Biochemical FRET based assay
- experimental context: recombinant BACE1 1 μg/ml, 120 minutes at room temperature, pH 5.0; read-out: Biochemical FRET based assay pIC50 (converted)
The reader will find reported IC50 values listed item by item below.
The reply should contain only the number, in µM.

Field: example entries. Status: answers known.
Input line: GET /values?readout=IC50&system=recombinant BACE1 protein (Homo sapiens)&item= C[C@@]1(c2ccnc(-c3cc(Cl)cc(Cl)c3)c2)N=C(N)CO[C@H]1F (single isomer, unassigned) [Compound 278]
Output line: 8.71

Input line: GET /values?readout=IC50&system=recombinant BACE1 protein (Homo sapiens)&item= CC1(c2cccc(NC(=O)c3ccncn3)c2)N=C(N)COC1(F)C(F)(F)F (single isomer, unassigned) [Compound 187]
Output line: 10.2

Input line: GET /values?readout=IC50&system=recombinant BACE1 protein (Homo sapiens)&item= CC1(c2cc(NC(=O)c3ncc(Cl)cc3F)ccc2F)N=C(N)COC1F (single isomer, unassigned) [Compound 133]
Output line: 0.0257

---
Input line: GET /values?readout=IC50&system=recombinant BACE1 protein (Homo sapiens)&item= N#Cc1ccc(C(=O)Nc2cccc([C@@]3(C4CC4)N=C(N)CO[C@@]3(F)C(F)(F)F)c2)nc1 [Compound 199]
Output line: 0.0148

Input line: GET /values?readout=IC50&system=recombinant BACE1 protein (Homo sapiens)&item= CC1(c2cccc(-c3cncnc3)c2)N=C(N)COC1(F)C(F)(F)F (single isomer, unassigned) [Compound 117]
Output line: 0.437

Input line: GET /values?readout=IC50&system=recombinant BACE1 protein (Homo sapiens)&item= CC1(c2cc(-c3cncnc3)ccc2F)N=C(N)COC1C(F)(F)F (single isomer, unassigned) [Compound 268]
Output line: 0.363

Input line: GET /values?readout=IC50&system=recombinant BACE1 protein (Homo sapiens)&item= COc1cnc(C(=O)Nc2cccc(C3(C)COC(F)(C(F)(F)F)C(N)=N3)c2)cn1 (single isomer, unassigned) [Compound 69]
Output line: 5.13

* * *

The reader will find reported IC50 values listed item by item below.
- Test system: Abeta 1-42
- method description: Cellular αLisa assay in SKNBE2 cells, Abeta 1-42
- Format: cell-based, human
- experimental context: Homo sapiens, SKNBE2, 18 h, incubated for 18 hours, read-out: Cellular αLisa assay in SKNBE2 cells Abeta 42 pIC50 (converted)
The reply should contain only the number, in nM.

Input line: Look up IC50: `NC1=N[C@@](c2cccc(NC(=O)c3ncc(Cl)cc3Cl)c2)(C2CC2)[C@H](F)OC1`
Output line: 41.7

Input line: Look up IC50: `C[C@]1(c2cc(-c3cncc(F)c3)c(F)cc2F)N=C(N)CO[C@@H]1C(F)(F)F`
Output line: 724

Input line: Look up IC50: CC1(c2cccc(NC(=O)c3ccc(Cl)cn3)c2)COC(F)(C(F)(F)F)C(N)=N1 (single isomer, unassigned) [Compound 15]
Output line: 490

---
Input line: Look up IC50: `N#Cc1ccc(C(=O)Nc2ccc(F)c([C@@]3(C4CC4)N=C(N)CO[C@@H]3F)c2)nc1`
Output line: 794

Input line: Look up IC50: CC1(c2cc(-c3cncnc3)c(F)cc2F)COC2(CC2)C(N)=N1 (stereo not shown)
Output line: 631

Input line: Look up IC50: `COc1cnc(C(=O)Nc2ccc(F)c([C@@]3(C4CC4)N=C(N)CO[C@H]3C(F)(F)F)c2)cn1`
Output line: 13.8

Input line: Look up IC50: C[C@@]1(c2ccnc(-c3cc(Cl)cc(Cl)c3)c2)N=C(N)CO[C@H]1F (single isomer, unassigned)
Output line: 3240
